assay: Pharmacokinetics in ICR mice after IV and PO dose; type: in vivo; settings: mouse, plasma, PO, 24.5 mg/kg
measurement-type: Cmax (ng/mL)

> print(dat)
                                   compound  measurement.type  assay.result
1  C#Cc1cccc(Nc2nc3cc(C(=O)O)ccc3c3cncnc23)c1 [drawing 1347]              Cmax          1600

* * *

tested on: BxPC3; test: Cell proliferation assay, Alamar Blue, BxPC3; type: cell-based; settings: Homo sapiens, BXPC-3; Table 19b
pIC50: −log10 of the molar value.
measurement-type: pIC50

> print(dat)
                                    compound  result.qualifier  assay.result
 1  COC(=O)c1ccc2c(c1)nc(NC1CC1)c1nc(SC)ncc12 [drawing 1292]                 =          5.13
 2  O=C(O)c1ccc2c(c1)nc(NCCc1cccc(Cl)c1)c1ccncc12 [drawing 1219]                 =          4.61
 3  O=C(O)c1ccc2c(c1)nc(NCCc1cccc(F)c1)c1ccncc12 [drawing 1220]                 =          5.48
 4  C#Cc1cccc(Nc2nc3cc(C(=O)O)ccc3c3cnc(NCC4CCCO4)nc23)c1 (centres unmarked) [drawing 1256]                 =          5.92
 5  O=C(O)c1ccc2c(c1)nc(Nc1cncc(C3CC3)c1)c1ccncc12                 =          4.42
 6  C#Cc1cccc(Nc2nc3cc(C(=O)O)ccc3c3cnc(NCC4CC4)nc23)c1 [drawing 1257]                 =          6.09
 7  Cc1cc(Nc2ncc3c(n2)c(Nc2ccc(F)c(Cl)c2)nc2cc(C(=O)O)ccc23)[nH]n1 [drawing 1286]                 <          4.30
 8  O=C(O)c1ccc2c(c1)nc(NCc1cccnc1)c1nc(NC3CC3)ncc12 [drawing 1276]                 <          4.30
 9  COC(=O)c1ccc2c(c1)nc(NC1CC1)c1nc(SCc3ccccc3Cl)ncc12 [drawing 1262]                 =          5.67
10  Nc1ncc2c(n1)c(NC1CC1)nc1cc(C(=O)O)ccc12 [drawing 1295]                 =          4.36
11  O=C(O)c1ccc2c(c1)nc(NC1CC1)c1nc(NCc3ccccc3)ncc12 [drawing 1268]                 =          4.96
12  O=C(O)c1ccc2c(c1)nc(NC1CC1)c1nc(Nc3ccccc3)ncc12 [drawing 1269]                 =          5.41
13  O=C(O)c1ccc2c(c1)nc(NC1CC1)c1nc(SCc3ccccc3Cl)ncc12 [drawing 1265]                 =          4.34
14  CN(C)CCNc1nc2cc(C(=O)O)ccc2c2cnc(NC3CC3)nc12 [drawing 1293]                 =          4.89

* * *

tested on: MiaPaca human pancreatic carcinoma cells; assay: Cell proliferation assay, Alamar Blue, MiaPaca; assay type: cell-based; conditions: MIA PaCa-2, Table 16
pIC50: −log10 of the molar value.
measurement-type: pIC50

> print(dat)
                                    compound                           measured.target  assay.result
 1  O=C(O)c1ccc2c(c1)nc(Nc1cc(Cl)cc(Cl)c1)c1ccsc12 [drawing 984]  MiaPaca human pancreatic carcinoma cells          4.84
 2  O=C(O)c1ccc2c(c1)nc(Nc1cccc(C(F)(F)F)c1)c1ccsc12  MiaPaca human pancreatic carcinoma cells        < 5.00
 3    O=C(O)c1ccc2c(c1)nc(Nc1ccccc1)c1ccsc12  MiaPaca human pancreatic carcinoma cells        < 5.00
 4  N#Cc1cc(F)cc(Nc2nc3cc(C(=O)O)ccc3c3sccc23)c1  MiaPaca human pancreatic carcinoma cells        < 5.00
 5  CC(=O)N1CCN(C(=O)c2cccc(Nc3nc4cc(-c5nnn[nH]5)ccc4c4sccc34)c2)CC1  MiaPaca human pancreatic carcinoma cells        < 5.00
 6  N#Cc1cccc(Nc2nc3cc(C(=O)O)ccc3c3sccc23)c1  MiaPaca human pancreatic carcinoma cells        < 5.00
 7  O=C(O)c1ccc2c(c1)nc(Nc1cccc(F)c1)c1ncsc12  MiaPaca human pancreatic carcinoma cells        < 5.00
 8  C#Cc1cccc(Nc2nc3cc(C(=O)O)ccc3c3sccc23)c1 [drawing 938]  MiaPaca human pancreatic carcinoma cells        < 5.00
 9  Brc1cccc(Nc2nc3cc(-c4nnn[nH]4)ccc3c3sccc23)c1  MiaPaca human pancreatic carcinoma cells        < 5.00
10  C#Cc1cccc(Nc2nc3cc(-c4nnn[nH]4)ccc3c3sccc23)c1  MiaPaca human pancreatic carcinoma cells        < 5.00
